- ASSAY COMMENT: Cell viability by WST-1 assay in apical-out enteroids
- Type: cell-based, human
- CONDITIONS USED: human
ENDPOINT LABEL: viability at 4 h, 771 µM (%)
Just the number please, in %, no unit attached.

In: Dear colleague, I am looking for the recorded viability at 4 h, 771 µM of the following compound: CC1(C)C=Cc2c(ccc3c2OC[C@@H](c2ccc(O)cc2O)C3)O1
Out: 29
